# test_system: mouse ActRIIA (mouse, UniProt P27038 20-135, limits assumed);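 also: immunoglobulin held at a fixed level and mixed with serially diluted antigen overnight at 4 °C to equilibrium, then unbound antibody captured on antigen-coated plates and read by electrochemiluminescence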
# Sequence (P27038 20-135 limits assumed): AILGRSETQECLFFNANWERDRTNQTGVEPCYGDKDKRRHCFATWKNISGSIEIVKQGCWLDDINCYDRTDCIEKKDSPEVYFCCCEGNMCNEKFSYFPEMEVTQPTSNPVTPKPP
# protocol_description: MSD-SET
measurement_label: Kd (nM)
Value expressed in nM; do not type the unit.

Item: Ofaschlupfer Fab (Fab, V domains shown, Fab) VH: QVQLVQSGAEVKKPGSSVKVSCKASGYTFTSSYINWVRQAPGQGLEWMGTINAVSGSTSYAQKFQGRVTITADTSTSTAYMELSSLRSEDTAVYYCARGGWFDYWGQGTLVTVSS VL: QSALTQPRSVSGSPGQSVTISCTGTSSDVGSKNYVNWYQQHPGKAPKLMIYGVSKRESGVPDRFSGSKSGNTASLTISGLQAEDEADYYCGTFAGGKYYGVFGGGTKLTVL | Kd: 0.018

Item: Schwardamaga Fab (Fab, V domains shown, Fab) VH: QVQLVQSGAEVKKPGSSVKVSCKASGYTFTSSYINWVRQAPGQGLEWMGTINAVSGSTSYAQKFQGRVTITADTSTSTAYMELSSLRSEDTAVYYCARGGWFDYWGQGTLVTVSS VL: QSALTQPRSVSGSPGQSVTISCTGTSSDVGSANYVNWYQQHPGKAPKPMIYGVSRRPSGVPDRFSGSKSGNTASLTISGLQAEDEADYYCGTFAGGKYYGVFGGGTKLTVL | Kd: 0.039

Item: Soidawürstle Fab (Fab, V domains shown, Fab; also called Soidawüsrstel (Fab)) VH: QVQLVQSGAEVRKPGSSVKVSCKASGYTFTSSYINWVRQAPGQGLEWMGTINPVSGSTSYAQKFQGRVTITADTSTSTAYMELSSLRSEDTAVYYCARGGWFDYWGQGTLVTVSS VL: QSALTQPRSVSGSPGQSVTISCTGTSSDVGSYNRVNWYQQHPGKAPKLMIYGVSKRESGVPDRFSGSKSGNTASLTISGLQAEDEADYYCGTFAGGRYYGVFGGGTKLTVL | Kd: 0.04

Item: Bimagrumab Fab (Fab, V domains shown, Fab) VH: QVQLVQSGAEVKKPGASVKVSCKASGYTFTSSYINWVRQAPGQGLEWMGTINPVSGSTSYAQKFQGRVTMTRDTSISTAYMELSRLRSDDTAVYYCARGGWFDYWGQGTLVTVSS VL: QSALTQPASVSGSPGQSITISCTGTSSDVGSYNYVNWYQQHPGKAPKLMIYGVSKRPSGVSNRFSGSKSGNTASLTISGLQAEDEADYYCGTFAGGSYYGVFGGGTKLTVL | Kd: 0.239
